Hi there, I'd appreciate the recorded fraction unbound for every entry that follows.
method description: Protein binding in rat brain assessed as unbound fraction
Type: ADME, tissue-based
test context: brain tissue
Number only, no unit.

# lookup: fraction unbound of "O=C1O[C@]2(CC[C@H](CNc3ccc(-c4ccccc4F)nn3)CC2)CN1c1ccccn1"
0.016

# lookup: fraction unbound of "Cc1nnc(N2C[C@]3(CC[C@@H](CNc4cnn(-c5ccccc5F)c4)CC3)OC2=O)s1"
0.026

# lookup: fraction unbound of "O=C1O[C@]2(CC[C@H](CNc3cnn(-c4ccccc4F)c3)CC2)CN1c1cncnc1"
0.044

###

Hi there, I'd appreciate the recorded INH for every entry that follows.
test system: Cytochrome P450 2C19 (Homo sapiens)
Sequence (P33261 whole entry): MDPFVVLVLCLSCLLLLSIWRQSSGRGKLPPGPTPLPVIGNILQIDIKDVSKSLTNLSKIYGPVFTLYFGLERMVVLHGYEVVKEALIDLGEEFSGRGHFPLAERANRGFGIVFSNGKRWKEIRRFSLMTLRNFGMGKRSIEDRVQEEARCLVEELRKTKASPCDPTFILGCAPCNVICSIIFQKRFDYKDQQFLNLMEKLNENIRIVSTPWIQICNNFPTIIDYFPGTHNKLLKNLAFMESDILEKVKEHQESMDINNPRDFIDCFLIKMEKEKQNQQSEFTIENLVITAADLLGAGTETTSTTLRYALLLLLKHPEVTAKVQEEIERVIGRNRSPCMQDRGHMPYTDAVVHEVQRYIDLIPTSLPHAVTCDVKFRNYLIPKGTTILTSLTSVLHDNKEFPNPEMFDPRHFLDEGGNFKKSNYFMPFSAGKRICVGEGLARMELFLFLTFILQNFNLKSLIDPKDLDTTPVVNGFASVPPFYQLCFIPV
method description: Inhibition of CYP2C19
Type: ADME

# lookup: INH of "O=C1O[C@]2(CC[C@H](CNc3cnn(-c4ccccc4F)c3)CC2)CN1c1ccnnc1"
> 10 µM

# lookup: INH of "FC(F)(F)c1ccc(Nc2nc(-c3ccccn3)cs2)cc1"
< 0.1 µM

# lookup: INH of "Cc1ccccc1-c1ccc(NC[C@H]2CC[C@]3(CC2)CN(c2cccnn2)C(=O)O3)nn1"
> 10 µM

# lookup: INH of "O=C1O[C@]2(CC[C@H](CNc3ccc(-c4ncccn4)cn3)CC2)CN1c1cccnn1"
> 10 µM

# lookup: INH of "Cc1nnc(N2C[C@]3(CC[C@@H](CNc4cnn(-c5ccccc5F)c4)CC3)OC2=O)s1"
> 10 µM

# lookup: INH of "O=C1O[C@]2(CC[C@H](CNc3ccc(-c4ncccc4F)cn3)CC2)CN1c1cccnn1"
> 10 µM

# lookup: INH of "O=C1O[C@]2(CC[C@H](CNc3cnn(-c4ccccc4F)c3)CC2)CN1c1cccnc1F"
8 µM

# lookup: INH of "Cc1cccc(-c2ccc(NC[C@H]3CC[C@]4(CC3)CN(c3cccnn3)C(=O)O4)nc2)n1"
> 10 µM

# lookup: INH of "O=C1O[C@]2(CC[C@H](CNc3ccc(-c4ccccc4F)nn3)CC2)CN1c1cccnn1"
> 10 µM

###

test system: Cytochrome P450 3A4 (Homo sapiens)
Sequence (P08684 whole entry): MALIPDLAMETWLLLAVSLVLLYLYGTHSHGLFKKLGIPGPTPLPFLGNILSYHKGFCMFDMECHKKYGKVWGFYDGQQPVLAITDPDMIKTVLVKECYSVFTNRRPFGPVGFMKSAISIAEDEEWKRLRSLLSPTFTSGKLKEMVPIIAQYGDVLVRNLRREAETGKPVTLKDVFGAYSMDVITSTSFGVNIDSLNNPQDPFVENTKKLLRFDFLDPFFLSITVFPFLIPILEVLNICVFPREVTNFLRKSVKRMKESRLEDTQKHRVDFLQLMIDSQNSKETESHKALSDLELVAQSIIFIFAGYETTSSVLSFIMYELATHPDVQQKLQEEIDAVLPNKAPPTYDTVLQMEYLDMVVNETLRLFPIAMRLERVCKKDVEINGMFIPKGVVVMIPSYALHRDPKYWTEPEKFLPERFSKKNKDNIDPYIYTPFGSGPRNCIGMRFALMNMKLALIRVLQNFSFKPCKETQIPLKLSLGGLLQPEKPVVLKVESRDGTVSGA
method description: Inhibition of CYP3A4
Type: ADME
Hi there, I'd appreciate the recorded INH for every entry that follows.

# lookup: INH of "Cc1cccc(-c2ccc(NC[C@H]3CC[C@]4(CC3)CN(c3cccnn3)C(=O)O4)nc2)n1"
> 10 µM

# lookup: INH of "Cc1ccccc1-c1ccc(NC[C@H]2CC[C@]3(CC2)CN(c2cccnn2)C(=O)O3)nn1"
> 10 µM

# lookup: INH of "O=C1O[C@]2(CC[C@H](CNc3cnn(-c4ccccc4F)c3)CC2)CN1c1cccnc1F"
5 µM

# lookup: INH of "O=C1O[C@]2(CC[C@H](CNc3ccc(-c4nccs4)cn3)CC2)CN1c1ccccn1"
7 µM

# lookup: INH of "O=C1O[C@]2(CC[C@H](CNc3ccn(-c4ccccc4F)n3)CC2)CN1c1ccccn1"
> 10 µM

# lookup: INH of "O=C(Nc1nc(-c2ccccn2)cs1)N1CCC2(CC1)CN(c1ccccc1)C(=O)O2"
> 10 µM

# lookup: INH of "O=C1O[C@]2(CC[C@H](CNc3ccc(-c4ccccc4F)nn3)CC2)CN1c1cccnn1"
> 10 µM

# lookup: INH of "O=C1O[C@]2(CC[C@H](CNc3cnn(-c4ccccc4F)c3)CC2)CN1c1cccnn1"
> 10 µM

# lookup: INH of "O=C1O[C@]2(CC[C@H](CNc3ccc(-c4ccccc4F)nn3)CC2)CN1c1ccccn1"
> 10 µM

# lookup: INH of "O=C1O[C@]2(CC[C@H](CNc3ccc(C(F)(F)F)cn3)CC2)CN1c1ccccn1"
> 10 µM

# lookup: INH of "Cc1ncccc1N1C[C@]2(CC[C@@H](CNc3cnn(-c4ccccc4F)c3)CC2)OC1=O"
> 10 µM

# lookup: INH of "O=C1O[C@]2(CC[C@H](CNc3ccc(-c4ncccn4)cn3)CC2)CN1c1ccccn1"
> 10 µM

###

test system: Cytochrome P450 2C9 (Homo sapiens)
Sequence (P11712 whole entry): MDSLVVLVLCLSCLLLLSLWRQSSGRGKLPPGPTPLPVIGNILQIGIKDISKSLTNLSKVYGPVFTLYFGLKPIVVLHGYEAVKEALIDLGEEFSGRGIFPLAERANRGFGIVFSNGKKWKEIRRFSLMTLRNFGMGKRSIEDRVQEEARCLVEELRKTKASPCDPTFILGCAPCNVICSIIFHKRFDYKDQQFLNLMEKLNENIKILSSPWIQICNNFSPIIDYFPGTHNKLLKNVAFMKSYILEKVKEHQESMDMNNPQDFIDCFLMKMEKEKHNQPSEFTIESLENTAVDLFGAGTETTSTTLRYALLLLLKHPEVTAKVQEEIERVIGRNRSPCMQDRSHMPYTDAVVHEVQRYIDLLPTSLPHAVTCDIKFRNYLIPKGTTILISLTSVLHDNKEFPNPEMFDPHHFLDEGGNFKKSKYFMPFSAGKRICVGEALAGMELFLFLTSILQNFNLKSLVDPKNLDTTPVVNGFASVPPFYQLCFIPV
method description: Inhibition of CYP2C9
Format: ADME
assay endpoint: INH

# lookup: INH of "O=C1O[C@]2(CC[C@H](CNc3ccc(-c4ccccc4F)nn3)CC2)CN1c1cccnn1"
> 10 µM

# lookup: INH of "FC(F)(F)c1ccc(Nc2nc(-c3ccccn3)cs2)cc1"
< 0.1 µM

# lookup: INH of "O=C1O[C@]2(CC[C@H](CNc3ccc(-c4ncccc4F)cn3)CC2)CN1c1cccnn1"
> 10 µM

# lookup: INH of "Cc1cccc(-c2ccc(NC[C@H]3CC[C@]4(CC3)CN(c3cccnn3)C(=O)O4)nc2)n1"
> 10 µM

###

test system: Neuropeptide Y receptor type 5 (Homo sapiens, UniProt Q15761)
Sequence (Q15761 whole entry): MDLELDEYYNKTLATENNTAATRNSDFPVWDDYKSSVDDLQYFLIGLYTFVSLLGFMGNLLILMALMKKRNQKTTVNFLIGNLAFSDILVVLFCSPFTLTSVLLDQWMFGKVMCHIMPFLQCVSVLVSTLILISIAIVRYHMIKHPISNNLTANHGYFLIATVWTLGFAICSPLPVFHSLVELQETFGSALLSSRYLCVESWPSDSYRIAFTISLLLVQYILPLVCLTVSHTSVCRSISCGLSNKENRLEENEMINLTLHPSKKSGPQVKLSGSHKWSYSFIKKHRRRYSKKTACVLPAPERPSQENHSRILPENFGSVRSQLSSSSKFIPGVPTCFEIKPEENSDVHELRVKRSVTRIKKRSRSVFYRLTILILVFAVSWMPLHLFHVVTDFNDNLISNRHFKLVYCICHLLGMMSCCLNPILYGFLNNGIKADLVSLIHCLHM
method description: Antagonist activity at human NPY Y5 receptor
pKi: −log10 of the molar value.
Mark No for pKi values under 10, and Yes for everything at or above.

Decide: is the reported value of pKi for "O=C1O[C@]2(CC[C@H](CNc3ccn(-c4ccccc4F)n3)CC2)CN1c1ccccn1" equal to or greater than 10?
Yes

Decide: is the reported value of pKi for "O=C1O[C@]2(CC[C@H](CNc3cnn(-c4ccccc4F)c3)CC2)CN1c1ccnnc1" equal to or greater than 10?
No

Decide: is the reported value of pKi for "O=C1O[C@]2(CC[C@H](CNc3ccc(C(F)(F)F)cn3)CC2)CN1c1ccccn1" equal to or greater than 10?
No

Decide: is the reported value of pKi for "O=C1O[C@]2(CC[C@H](CNc3ncc(-c4ccccc4F)cn3)CC2)CN1c1ccccn1" equal to or greater than 10?
No

Decide: is the reported value of pKi for "O=C1O[C@]2(CC[C@H](CNc3ccc(-c4ncccc4F)cn3)CC2)CN1c1cccnn1" equal to or greater than 10?
No

###

Hi there, I'd appreciate the recorded pKi for every entry that follows.
test system: Neuropeptide Y receptor type 5 (Homo sapiens)
method description: Antagonist activity at human NPY Y5 receptor
Type: functional
Formally, pKi is defined as -log10 of the concentration c, with c in mol/L.

# lookup: pKi of "O=C1O[C@]2(CC[C@H](CNc3cnn(-c4ccccc4F)c3)CC2)CN1c1cnccn1"
10.20

# lookup: pKi of "O=C1O[C@]2(CC[C@H](CNc3ccc(-c4ccccc4F)nn3)CC2)CN1c1cccnn1"
9.80

# lookup: pKi of "O=C1O[C@]2(CC[C@H](CNc3cnn(-c4ccccc4F)c3)CC2)CN1c1cccnc1F"
10.00

# lookup: pKi of "O=C1O[C@]2(CC[C@H](CNc3ccc(OC4CCC4)cn3)CC2)CN1c1ccccn1"
9.80

# lookup: pKi of "O=C1O[C@]2(CC[C@H](CNc3cnn(-c4ccccc4F)c3)CC2)CN1c1cccnc1"
10.00

# lookup: pKi of "O=C1O[C@]2(CC[C@H](CNc3ccc(-c4ncccn4)cn3)CC2)CN1c1ccccn1"
9.80
